Provide the reported Activity of each item.
- System: Cortical neurone
- Test: Cytotoxicity against primary C57BL/6J E14-17 mouse Cortical neuron assessed as decrease in cell viability at 10 uM incubated for 24 hrs by CCK-8 assay relative to control
- Assay type: toxicity, cell-based
Write the value in % as a bare number.

The compound CC(=O)N[C@@H]1CC[C@@H](c2ccc(Cl)c(Cl)c2)c2ccccc21 (relative stereo) showed Activity equal to 101.23

The compound CCCN[C@@H]1CC[C@@H](c2ccc(Cl)c(Cl)c2)c2ccccc21 (relative stereo) showed Activity equal to 100.55

The compound CCCCCC(C)N[C@@H]1CC[C@@H](c2ccc(Cl)c(Cl)c2)c2ccccc21 (relative stereo) showed Activity equal to 84.74

The compound COc1cccc(CN[C@@H]2CC[C@@H](c3ccc(Cl)c(Cl)c3)c3ccccc32)c1 (relative stereo) showed Activity equal to 97.09

The compound Clc1ccc([C@@H]2CC[C@@H](NCCN3CCNCC3)c3ccccc32)cc1Cl showed Activity equal to 31.8

The compound Cc1ccc(CN[C@@H]2CC[C@@H](c3ccc(Cl)c(Cl)c3)c3ccccc32)cc1 (relative stereo) showed Activity equal to 84.46

The compound CC1=NN(c2ccccc2)C(=O)C1 [EDARAVONE] showed Activity equal to 96.6

The compound NCCN[C@@H]1CC[C@@H](c2ccc(Cl)c(Cl)c2)c2ccccc21 (relative stereo) showed Activity equal to 24.73

The compound Clc1ccc([C@@H]2CC[C@@H](NC3CC3)c3ccccc32)cc1Cl (relative stereo) showed Activity equal to 109.93

* * *

- System: Cortical neurone
- Test: Cytotoxicity against primary C57BL/6J E14-17 mouse Cortical neuron assessed as decrease in cell viability upto 50 uM incubated for 24 hrs by CCK-8 assay
- Format: toxicity, cell-based
Recorded Metric: Activity

Example cases with answers are listed next.
Compound: CCCCCCCCN(C)[C@H]1CC[C@@H](c2ccc(Cl)c(Cl)c2)c2ccccc21
Val: Non-Toxic
--
Compound: CCCC(=O)N[C@@H]1CC[C@@H](c2ccc(Cl)c(Cl)c2)c2ccccc21 (relative stereo)
Val: Toxic
--
Compound: CCCCCCCCN(C)[C@@H]1CC[C@@H](c2ccc(Cl)c(Cl)c2)c2ccccc21 (racemic)
Val: Non-Toxic
--
Compound: COc1ccc(CN[C@@H]2CC[C@@H](c3ccc(Cl)c(Cl)c3)c3ccccc32)cc1OC (relative stereo)
Val: Toxic

The compound CC(=O)N[C@@H]1CC[C@@H](c2ccc(Cl)c(Cl)c2)c2ccccc21 (relative stereo) showed Activity equal to Toxic

* * *

- System: Cortical neurone
- Test: Cytotoxicity against primary C57BL/6J E14-17 mouse Cortical neuron assessed as decrease in cell viability upto 50 uM incubated for 24 hrs by CCK-8 assay
- Format: toxicity, cell-based
Recorded Metric: Activity

Compound: C=CCC(=O)N[C@@H]1CC[C@@H](c2ccc(Cl)c(Cl)c2)c2ccccc21 (relative stereo)
Activity: Toxic
//
Compound: Cc1cccc(CN[C@@H]2CC[C@@H](c3ccc(Cl)c(Cl)c3)c3ccccc32)c1 (relative stereo)
Activity: Toxic
//
Compound: CN[C@H]1CC[C@@H](c2ccc(Cl)c(Cl)c2)c2ccccc21 [SERTRALINE]
Activity: Non-Toxic
//
Compound: Clc1ccc([C@@H]2CC[C@@H](N3CCCC3)c3ccccc32)cc1Cl (relative stereo)
Activity: Toxic
//
Compound: CCCCCCN[C@@H]1CC[C@@H](c2ccc(Cl)c(Cl)c2)c2ccccc21 (relative stereo)
Activity: Toxic
//
Compound: Clc1ccc([C@@H]2CC[C@@H](NC3CCCCC3)c3ccccc32)cc1Cl (relative stereo)
Activity: Toxic
//
Compound: CN(C)[C@H]1CC[C@@H](c2ccc(Cl)c(Cl)c2)c2ccccc21
Activity: Non-Toxic

// next entry
The compound O=C(Cc1ccccc1)N[C@@H]1CC[C@@H](c2ccc(Cl)c(Cl)c2)c2ccccc21 (relative stereo) showed Activity equal to Toxic
